target: Nluc-A1R (adenosine A1 receptor) H264A (Homo sapiens, UniProt P30542, H264A); test: cell-based
quantity: Ki (nM)
# unit: nM | format: bare number

Please indicate Ki recorded for `OC[C@H]1O[C@@H](n2cnc3c(N[C@@H]4CCC[C@H]4O)ncnc32)[C@H](O)[C@@H]1O` 955

###

Target: Nluc-A1R (adenosine A1 receptor) (Homo sapiens, UniProt P30542, L253A)
Sequence (P30542 1-326 L253A): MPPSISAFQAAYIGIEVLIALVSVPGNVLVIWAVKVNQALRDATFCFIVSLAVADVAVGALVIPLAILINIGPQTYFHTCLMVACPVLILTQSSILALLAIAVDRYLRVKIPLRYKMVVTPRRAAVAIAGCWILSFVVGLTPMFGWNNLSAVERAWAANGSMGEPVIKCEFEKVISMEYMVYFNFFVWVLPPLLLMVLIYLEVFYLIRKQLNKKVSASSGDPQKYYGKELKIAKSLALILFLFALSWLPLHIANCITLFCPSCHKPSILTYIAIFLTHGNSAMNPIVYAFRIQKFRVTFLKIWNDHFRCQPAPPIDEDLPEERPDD
Test: NanoBRET competition binding, live HEK […] cells
quantity: Ki (µM)
# unit: µM | format: bare number

Please indicate Ki recorded for `OC[C@H]1O[C@@H](n2cnc3c(N[C@@H]4CCC[C@H]4O)ncnc32)[C@H](O)[C@@H]1O` 3.24

###

molecular target: Nluc-A1R (adenosine A1 receptor) Y12A (Homo sapiens, UniProt P30542, Y12A); assay: cell-based
quantity: pKi
// pKi is dimensionless: -log10 of concentration (M)

# lookup: Nluc-A1R (adenosine A1 receptor) Y12A (Homo sapiens, UniProt P30542, Y12A) pKi, key = OC[C@H]1O[C@@H](n2cnc3c(N[C@@H]4CCC[C@H]4O)ncnc32)[C@H](O)[C@@H]1O [compound 6, HOCPA] 5.78

###

target: Nluc-A1R (adenosine A1 receptor) K265A (Homo sapiens, UniProt P30542, K265A); experiment: cell-based
quantity: Ki (nM)
# unit: nM | format: bare number

# lookup: Nluc-A1R (adenosine A1 receptor) K265A (Homo sapiens, UniProt P30542, K265A) Ki, key = OC[C@H]1O[C@@H](n2cnc3c(N[C@@H]4CCC[C@H]4O)ncnc32)[C@H](O)[C@@H]1O [compound 6, HOCPA] 977

###

Molecular target: Nluc-A1R (adenosine A1 receptor) Q9A (Homo sapiens, UniProt P30542, Q9A)
Sequence (P30542 1-326 Q9A): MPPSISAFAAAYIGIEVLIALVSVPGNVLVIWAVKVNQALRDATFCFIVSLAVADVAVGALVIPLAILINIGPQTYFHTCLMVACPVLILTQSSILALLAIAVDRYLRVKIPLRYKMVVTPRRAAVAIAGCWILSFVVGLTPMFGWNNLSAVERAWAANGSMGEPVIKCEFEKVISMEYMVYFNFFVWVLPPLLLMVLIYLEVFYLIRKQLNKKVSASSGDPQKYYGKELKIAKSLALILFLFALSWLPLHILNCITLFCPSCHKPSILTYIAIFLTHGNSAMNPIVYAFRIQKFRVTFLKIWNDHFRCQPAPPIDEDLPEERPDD
Assay: cell-based
quantity: pKi
// pKi is dimensionless: -log10 of concentration (M)

Please indicate pKi recorded for OC[C@H]1O[C@@H](n2cnc3c(N[C@@H]4CCC[C@H]4O)ncnc32)[C@H](O)[C@@H]1O [compound 6, HOCPA] 5.71

###

target: Nluc-A1R (adenosine A1 receptor) (Homo sapiens, UniProt P30542, Y271A); test: NanoBRET competition binding, live HEK […] cells
quantity: pKi
// pKi is dimensionless: -log10 of concentration (M)

Please indicate pKi recorded for `OC[C@H]1O[C@@H](n2cnc3c(N[C@@H]4CCC[C@H]4O)ncnc32)[C@H](O)[C@@H]1O` 5.15

###

target: Nluc-A1R (adenosine A1 receptor) (Homo sapiens, UniProt P30542, I69A); assay: NanoBRET competition binding, live HEK […] cells; assay type: cell-based
quantity: Ki (µM)
# unit: µM | format: bare number

Please indicate Ki recorded for `OC[C@H]1O[C@@H](n2cnc3c(N[C@@H]4CCC[C@H]4O)ncnc32)[C@H](O)[C@@H]1O` 45.7

###

target: Nluc-A1R (adenosine A1 receptor) (Homo sapiens, UniProt P30542, T257A); assay: NanoBRET competition binding, live HEK […] cells
quantity: Ki (µM)
# unit: µM | format: bare number

Please indicate Ki recorded for `OC[C@H]1O[C@@H](n2cnc3c(N[C@@H]4CCC[C@H]4O)ncnc32)[C@H](O)[C@@H]1O` 0.115

###

target: UniProt:P30542; assay: NanoBRET competition binding, live HEK […] cells
quantity: Ki (nM)
# unit: nM | format: bare number

Please indicate Ki recorded for `OC[C@H]1O[C@@H](n2cnc3c(N[C@@H]4CCC[C@H]4O)ncnc32)[C@H](O)[C@@H]1O` 427
